// data source = patent US8889876B2

This section presents compounds with their documented inhibition at 100 µM values.
- Test system: MDA-MB-435s human breast cancer cells
- test_protocol: CCK-8 proliferation inhibition, MDA-MB-435s
- Type: cell-based
- condition_details: Homo sapiens, MDA-MB-435S; compound concentration 100 μM, CCK-8 method

| smi | inhibition at 100 µM |
| --- | --- |
| COc1ccc(/C=C/C(=O)NCc2ccc(C(=O)Nc3cccnc3N)cc2)cc1 | 57.8% |
| Nc1cnccc1NC(=O)c1ccc(CNC(=O)CCc2ccccc2)cc1 | 51.9% |
| Nc1cnccc1NC(=O)c1ccc(CNC(=O)/C=C/c2ccccc2)cc1 | 81.4% |
| COc1ccc(/C=C/C(=O)NCc2ccc(C(=O)Nc3cccnc3N)cc2)cc1OC | 48.5% |
| COc1ccc(/C=C/C(=O)NCc2ccc(C(=O)Nc3ccncc3N)cc2)cc1 | 81.4% |
| COc1ccc(COC(=O)NCc2ccc(C(=O)Nc3ccncc3N)cc2)cc1 | 94.5% |
| COc1ccc(COC(=O)NCc2ccc(C(=O)Nc3ccncc3N)cc2)cc1OC | 69.6% |
| Cc1ccc(COC(=O)NCc2ccc(C(=O)Nc3ccncc3N)cc2)cc1 | 79.1% |
| Nc1ncccc1NC(=O)c1ccc(CNC(=O)/C=C/c2cccnc2)cc1 | 89.2% |
| Nc1ncccc1NC(=O)c1ccc(CNC(=O)OCc2ccc([N+](=O)[O-])cc2)cc1 | 42.4% |
| Cc1ccc(/C=C/C(=O)NCc2ccc(C(=O)Nc3cccnc3N)cc2)cc1 | 77% |
| Nc1cnccc1NC(=O)c1ccc(CNC(=O)OCc2ccc(F)cc2)cc1 | 63.9% |
| Cc1ccc(CCC(=O)NCc2ccc(C(=O)Nc3cccnc3N)cc2)cc1 | 36.9% |
| COc1ccc(/C=C/C(=O)NCc2ccc(C(=O)Nc3ccncc3N)cc2)cc1OC | 77% |
| COc1cc(/C=C/C(=O)NCc2ccc(C(=O)Nc3cccnc3N)cc2)cc(OC)c1OC | 42.9% |
| Nc1ncccc1NC(=O)c1ccc(CNC(=O)CCc2ccccc2)cc1 | 26.6% |
| Nc1ncccc1NC(=O)c1ccc(CNC(=O)/C=C/c2ccc(F)cc2)cc1 | 76.3% |
| COc1cccc(COC(=O)NCc2ccc(C(=O)Nc3ccncc3N)cc2)c1 | 72.5% |
| Nc1cnccc1NC(=O)c1ccc(CNC(=O)/C=C/c2cccnc2)cc1 | 86.4% |

###

- Tested on: Hut78 T-cell Leukemia cell
- test_protocol: CCK-8 proliferation inhibition, Hut78
- Type: cell-based
- condition_details: Homo sapiens, HuT78, 10 μM, read-out: Hut-78 (inhibition %)
- Experimental: Detecting the inhibition rate of the compound concentrations of 100 μM and 10 μM to Hut78 T-cell Leukemia cell, Jurkat E6-1 human T-cell lymphoma, PANC-1 human pancreatic cancer cells, A549 human lung cancer cells, K562 human chronic myeloid leukemia cells, Hep3B2.1-7 human liver cancer cells, MDA-MB-435s human breast cancer cells, Colo320 human rectal cancer cells and PC-3 human prostate cancer using CCK-8 method.
Overview of reported inhibition at 10 µM across a group of compounds:
parameter: inhibition at 10 µM (%)

| smi | result_number |
| --- | --- |
| Nc1cnccc1NC(=O)c1ccc(CNC(=O)/C=C/c2ccc([N+](=O)[O-])cc2)cc1 | 39.6 |
| Nc1ncccc1NC(=O)c1ccc(CNC(=O)OCc2cccnc2)cc1 | 36 |
| Nc1ncccc1NC(=O)c1ccc(CNC(=O)/C=C/c2cccnc2)cc1 | 28.2 |
| COc1ccc(CCC(=O)NCc2ccc(C(=O)Nc3cccnc3N)cc2)cc1 | 6.5 |
| COc1ccc(/C=C/C(=O)NCc2ccc(C(=O)Nc3cccnc3N)cc2)cc1OC | 27.2 |
